target: PAR4 (Homo sapiens (Human)); assay: FLIPR assay in PAR4-expressing HEK293 cells (PAR4 antagonist activity, calcium mobilization); type: cell-based; settings: FLIPR assay as described in Example A
Sequence (Q96RI0 18-385): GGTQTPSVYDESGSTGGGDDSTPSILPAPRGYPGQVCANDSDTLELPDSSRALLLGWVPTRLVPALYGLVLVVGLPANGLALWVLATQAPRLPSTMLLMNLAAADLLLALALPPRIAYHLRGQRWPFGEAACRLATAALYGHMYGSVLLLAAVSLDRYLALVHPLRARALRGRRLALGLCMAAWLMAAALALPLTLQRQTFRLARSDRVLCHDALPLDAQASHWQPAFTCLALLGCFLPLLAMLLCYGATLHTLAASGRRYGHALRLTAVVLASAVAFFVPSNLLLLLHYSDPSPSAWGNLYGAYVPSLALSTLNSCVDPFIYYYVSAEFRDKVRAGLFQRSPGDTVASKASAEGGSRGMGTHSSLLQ
measure: IC50 (nM)

smilesInput | assayResult
COc1cc(OCc2cccc(OCc3ccc(OCc4ccccc4)c(OC)c3)c2)c2cc(-c3cn4nc(OC)sc4n3)oc2c1 | 4.92
COc1nn2cc(-c3cc4c(OCc5cccc(OCc6ccccc6)c5)cc(C#N)cc4o3)nc2s1 | 5.02
Fc1ccc2cc(-c3cn4nc(Br)sc4n3)oc2c1 | 37.8
CSc1nn2cc(-c3nc4ccc(OCc5ccc(Cl)cc5)cc4o3)nc2s1 | 70.5

a = Clc1nccc2oc(-c3cn4nc(Br)sc4n3)cc12
b = CSc1nn2cc(-c3nc4cc(C)c(C)cc4o3)nc2s1
Q) Kindly identify which of a and b has the larger recorded IC50 value. Mark your selection by writing its label.
A) a
(a: 464 nM, b: 19.7 nM)

I = COc1ccc(COc2cccc3oc(-c4cn5nc(SC)sc5n4)nc23)cc1
II = COc1nn2cc(-c3oc4c(OC)c(OC)ccc4c3C)nc2s1
Q) Input pair: I , II . Output: entry with lower IC50. // respond with label for picked entry
A) I
(I: 814 nM, II: 1660 nM)

All figures here come from patent US9862730B2.
